# TARGET_DESC: human eIF4E protein (Homo sapiens, UniProt P06730)
# Sequence (P06730 whole entry): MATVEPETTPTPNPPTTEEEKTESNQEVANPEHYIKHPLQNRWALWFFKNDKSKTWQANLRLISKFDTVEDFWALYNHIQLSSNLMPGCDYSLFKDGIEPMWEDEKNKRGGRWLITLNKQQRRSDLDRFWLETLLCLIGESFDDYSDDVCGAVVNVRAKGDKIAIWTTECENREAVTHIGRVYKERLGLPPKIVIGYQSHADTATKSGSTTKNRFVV
pIC50: −log10 of the molar value.
READOUT_NAME: pIC50

compound="Cc1cc(-c2cc(Cl)ccc2OCCn2c(C)nc3c(c2=O)C[C@H](N2CCC[C@@]4(C2)CC4(F)F)CC3)c2scc(C(=O)O)c2n1 (single isomer, unassigned)" val="> 7.00"
compound="Cc1cc(-c2cc(Cl)ccc2OCCn2c(C)nc3c(c2=O)C[C@H](N2CCO[C@@H](COC(F)(F)F)C2)CC3)c2scc(C(=O)O)c2n1 (single isomer, unassigned)" val="> 7.00"
compound="COc1cc(CN(C)C2CCc3nc(C)n(CCOc4ccc(Cl)cc4-c4cc(C)nc5c(C(=O)O)csc45)c(=O)c3C2)ccn1 (single isomer, unassigned)" val="> 7.00"
compound="Cc1cc(-c2cc(Cl)ccc2OCCn2c(C)nc3c(c2=O)CC(N2CC4(CCC(F)(F)CC4)C2)CC3)c2scc(C(=O)NS(C)(=O)=O)c2n1 (single isomer, unassigned)" val="> 7.00"
compound="Cc1cc(-c2cc(Cl)ccc2OCCn2c(C)nc3c(c2=O)C[C@@H](N2CCCC[C@@H]2c2cccc(F)c2)CC32CC2)c2scc(C(=O)O)c2n1 (single isomer, unassigned)" val="5.30 to 6.30"

----------
# Tested on: COLO 205 colorectal tumor cells
# EXPERIMENT: Tumor cell viability inhibition assay (CellTiter-Glo 2.0, 72 hours)
# Format: cell-based
# COND: Homo sapiens, COLO 205, 72 h, COLO 205 cell viability
READOUT_NAME: IC50

compound="Cc1cc(-c2cc(Cl)ccc2OCCn2c(C)nc3c(c2=O)CC(N(C)C(=O)C2CCN(C)CC2)CC3)c2scc(C(=O)O)c2n1 (stereo not drawn) [Compound 74]" val="> 20 µM"
compound="Cc1cc(-c2cc(Cl)ccc2OCCn2c(C)nc3c(c2=O)CC(N2C4CCC2CC(F)(F)C4)CC3)c2scc(C(=O)O)c2n1 (stereo not drawn) [Compound 126]" val="< 5 µM"
compound="Cc1cc(-c2cc(Cl)ccc2OCCn2c(C)nc3c(c2=O)CC(N2CCC(c4cccc(C(F)(F)F)c4)CC2)CC3)c2scc(C(=O)O)c2n1 (stereo not drawn) [Compound 127]" val="< 5 µM"
compound="Cc1cc(-c2cc(Cl)ccc2OCCn2c(C)nc3c(c2=O)CC(N(C)CC2CCNCC2)CC3)c2scc(C(=O)NS(C)(=O)=O)c2n1 (single isomer, unassigned) [Compound 289]" val="5 to 20 µM"
compound="Cc1cc(-c2cc(Cl)ccc2OCCn2c(C)nc3c(c2=O)CC(N2CC4(CN(C)C4)C2)CC3)c2scc(C(=O)O)c2n1 (stereo not drawn) [Compound 35]" val="> 20 µM"
compound="Cc1csc(C2CCN([C@@H]3CCc4nc(C)n(CCOc5ccc(Cl)cc5-c5cc(C)nc6c(C(=O)O)csc56)c(=O)c4C3)CC2)n1 (single isomer, unassigned) [Compound 429]" val="< 5 µM"

----------
# Tested on: COLO 205 colorectal tumor cells
# EXPERIMENT: Tumor cell viability inhibition assay (CellTiter-Glo 2.0, 72 hours)
# Type: cell-based
# COND: COLO 205 cell viability
pIC50: −log10 of the molar value.
READOUT_NAME: pIC50

compound="Cc1cc(-c2cc(Cl)ccc2OCCn2c(C)nc3c(c2=O)CC(N2CCCCC2)CC3)c2scc(C(=O)NS(C)(=O)=O)c2n1 (single isomer, unassigned)" target_desc="COLO 205 colorectal tumor cells" readout_name=pIC50 val="4.70 to 5.30"
compound="Cc1nc2c(c(=O)n1CC#Cc1ccc(Cl)cc1-c1ccnc3c(C(=O)NS(C)(=O)=O)csc13)CC(N1CCCCC1)CC2 (single isomer, unassigned)" target_desc="COLO 205 colorectal tumor cells" readout_name=pIC50 val="4.70 to 5.30"
compound="Cc1cc(-c2cc(Cl)ccc2OCCn2c(C)nc3c(c2=O)CC(N2CCC4(CCN(CC(F)(F)F)C4)C2)CC3)c2scc(C(=O)O)c2n1 (single isomer, unassigned)" target_desc="COLO 205 colorectal tumor cells" readout_name=pIC50 val="> 5.30"
compound="Cc1cc(-c2cc(Cl)ccc2OCCn2c(C)nc3c(c2=O)CC(N(C)C2CC(F)(F)C2)CC3)c2scc(C(=O)NS(C)(=O)=O)c2n1 (single isomer, unassigned)" target_desc="COLO 205 colorectal tumor cells" readout_name=pIC50 val="> 5.30"
compound="Cc1cc(-c2cc(Cl)ccc2OCCn2c(C)nc3c(c2=O)CC(N(C2CC2)C2CC2)CC3)c2scc(C(=O)NS(C)(=O)=O)c2n1 (single isomer, unassigned)" target_desc="COLO 205 colorectal tumor cells" readout_name=pIC50 val="4.70 to 5.30"
compound="COC1CCN(C2(C)CCc3nc(C)n(CCOc4ccc(Cl)cc4-c4cc(C)nc5c(C(=O)O)csc45)c(=O)c3C2)CC1 (single isomer, unassigned) [Compound 496]" target_desc="COLO 205 colorectal tumor cells" readout_name=pIC50 val="> 5.30"
compound="Cc1nc2c(c(=O)n1CC#Cc1ccc(Cl)cc1-c1ccnc3c(C(=O)NS(C)(=O)=O)csc13)CC(N(C)C)CC2 (single isomer, unassigned)" target_desc="COLO 205 colorectal tumor cells" readout_name=pIC50 val="< 4.70"
compound="Cc1cc(-c2cc(Cl)ccc2OCCn2c(C)nc3c(c2=O)CC(N(C)Cc2ccncc2)CC3)c2scc(C(=O)O)c2n1 (single isomer, unassigned)" target_desc="COLO 205 colorectal tumor cells" readout_name=pIC50 val="> 5.30"
compound="Cc1cc(-c2cc(Cl)ccc2OCCn2c(C)nc3c(c2=O)CC(N(C)Cc2ccc(=O)[nH]c2)CC3)c2scc(C(=O)O)c2n1 (single isomer, unassigned)" target_desc="COLO 205 colorectal tumor cells" readout_name=pIC50 val="< 4.70"
compound="Cc1cc(-c2cc(Cl)ccc2OCCn2c(C)nc3c(c2=O)CC(N(CC2CC(F)(F)C2)C2CC2)CC3)c2scc(C(=O)NS(C)(=O)=O)c2n1 (single isomer, unassigned)" target_desc="COLO 205 colorectal tumor cells" readout_name=pIC50 val="> 5.30"
compound="Cc1cc(-c2cc(Cl)ccc2OCCn2c(C)nc3c(c2=O)CC(N(C)Cc2cc[nH]c(=O)c2)CC3)c2scc(C(=O)O)c2n1 (single isomer, unassigned)" target_desc="COLO 205 colorectal tumor cells" readout_name=pIC50 val="< 4.70"
compound="Cc1cc(-c2cc(Cl)ccc2C#CCn2c(C)nc3c(c2=O)CC(C)(N2CCCC4(C2)CC4(F)F)CC3)c2scc(C(=O)O)c2n1 (single isomer, unassigned) [Compound 608]" target_desc="COLO 205 colorectal tumor cells" readout_name=pIC50 val="> 5.30"
